- test: Hydrogen peroxide (H2O2) inhibition assay (fluorescence, DCF/horseradish peroxidase)
- Assay type: biochemical
- statedConditions: ascorbic acid as reducing substrate; test compound 0.4 μM; lower values = greater inhibition of H2O2
recordedEndpoint: Fe-ASC % (cf. 0.4 uM Fe/Asc; cf. CQ, CQ = 100%) (% ASC)

1. O=c1cc(CNc2ccc(F)cc2F)nc2c(O)cccn12: 105
2. CCCCCCCNC(=O)C1=CNC2C(O)=CC=CN2C1=O (stereo not shown): 72
3. CCN1CCN(Cc2cc(=O)n3cccc(O)c3n2)CC1: 36
4. CCCCN(C)Cc1cc(=O)n2cccc(O)c2n1: 159
5. CCCCCCNCc1cc(=O)n2cccc(O)c2n1: 143
6. O=C(NCC1CCCCC1)c1cnc2c(O)cccn2c1=O: 59
7. CCCCNCc1cc(=O)n2cccc(O)c2n1: 35
8. O=C(NCc1ccncc1)c1cnc2c(O)cccn2c1=O: 126
9. O=c1cc(CNCc2ccccc2)nc2c(O)cccn12: 128
10. O=C(NC1CCCC1)c1cnc2c(O)cccn2c1=O: 190

====

Let's look at some compounds and their measured IC50.
- test: Hydrogen peroxide (H2O2) inhibition assay (fluorescence, DCF/horseradish peroxidase)
- Assay type: biochemical
- statedConditions: HCl salt tested where HCl salt MW is given
recordedEndpoint: IC50 (nM)

1. O=c1cc(CNCc2ccc(C(F)(F)F)cc2)nc2c(O)cccn12: 350
2. Cc1ccc(O)c2nc(CNCCc3ccccn3)cc(=O)n12: 310

====

- test: Hydrogen peroxide (H2O2) inhibition assay (fluorescence, DCF/horseradish peroxidase)
- Format: biochemical
- statedConditions: HCl salt tested where HCl salt MW is given
pIC50: −log10 of the molar value.
Let's look at some compounds and their measured pIC50.
recordedEndpoint: pIC50

1. CCCCN(C)Cc1cc(=O)n2cccc(O)c2n1 [Compound 1485]: 6.28
2. O=C(NCc1ccc(F)cc1F)c1cnc2c(O)cccn2c1=O [Compound 1437]: 6.33
3. CCCc1cnc2c(O)c(Cl)ccn2c1=O [Compound 1235]: 6.54

====

- test: Hydrogen peroxide (H2O2) inhibition assay (fluorescence, DCF/horseradish peroxidase)
- Type: biochemical
- statedConditions: dopamine as reducing substrate; test compound 0.4 μM; lower values = greater inhibition of H2O2
- Method: Assay 1. Hydrogen Peroxide Assay H2O2 is a strong oxidizer and a highly reactive oxygen species that is known to be toxic to surrounding proteins and organelles, inhibiting their function. […] H2O2 generated by the system is assessed by measuring the specific fluorescence profile at the excitation and emission wavelengths of 485 and 530 nm respectively, in the presence of test compound. Test compounds were dissolved in DMSO and tested at concentrations of 0.4 μM. […]
Is Fe-DA % (cf. 0.4 uM Fe/DA; cf. CQ, CQ = 100%) at least 50%? Then True. If not, False.

1) O=C(NC1CCCCC1)c1cnc2c(O)cccn2c1=O [Compound 1460]: False
2) Cc1ccc(O)c2nc(CN(C)Cc3ccccc3F)cc(=O)n12 [Compound 1527]: True
3) C#CCN(C)Cc1cc(=O)n2c(C)ccc(O)c2n1 [Compound 1491]: False
4) O=c1cc(CN2CCN(Cc3ccccc3F)CC2)nc2c(O)cccn12 [Compound 1515]: True
5) CCCCCCNC(=O)c1cnc2c(O)cccn2c1=O [Compound 1440]: False
6) Cc1ccc(O)c2nc(CN(C)C)cc(=O)n12 [Compound 1466]: False
7) O=C(NCc1ccc2c(c1)OCO2)c1cnc2c(O)cccn2c1=O [Compound 1432]: True
